Provenance of the data: patent US20080132529A1

Each item that follows carries a reported AUC(0-inf).
- Protocol summary: Phase I food-effect crossover pharmacokinetic study, single 400 mg oral dose of T2000 (DMMDPB), fasting vs fed
- Setup conditions: male, human, plasma, po, 400 mg, AUC0-∞, Fed; single 400 mg oral dose of DMMDPB; least-squares geometric mean; n=18 for DMMDPB, n=20 for MMMDPB
- Method: This was a single center, randomized, single dose, open-label, 2-way, food-effect crossover study to compare the rate and extent of absorption of T2000, administered as 4×100 mg capsules (for a total dose of 400 mg), under fasting and fed conditions. Subjects were confined to a clinical research facility from at least 11 hours prior to drug administration until after the 72.0-hour post-dose blood draw, in each period. Single oral doses were separated by a washout period of at least 21 days. […]

# Molecule smiles, AUC(0-inf) (µg·h/mL)
rows = [
    ("COCN1C(=O)NC(=O)C(c2ccccc2)(c2ccccc2)C1=O", 120),
    ("O=C1NC(=O)C(c2ccccc2)(c2ccccc2)C(=O)N1", 271),
    ("COCN1C(=O)N(COC)C(=O)C(c2ccccc2)(c2ccccc2)C1=O", 10.8),
]
